System: HBsAg
Experiment: HBsAg assay (CLIA of secreted HBsAg in HepG2.2.15 culture supernatant)
Format: cell-based, HBV
Settings: Hepatitis B virus, HepG2.2.15, read-out: IC50 (HBsAg secretion reduced by 50% compared to the no drug control), HepG2.2.15 cells, culture supernatant, HBsAg CLIA
Experimental: HepG2.2.15 cells (Acs et al. Proc Natl Acad Sci USA, 84, (1987), 4641-4), a constitutively HBV-expressing cell line were cultured in DMEM+Glutamax-I medium (Invitrogen, Carlsbad, Calif., USA, Catalog number: 11320082), supplemented with 10% fetal bovine serum (Invitrogen, Catalog number: 10099141) and G418 (Invitrogen, Catalog number: 10131027) at a final concentration of 200 mg/L and maintained in 5% CO2 at 37° C. […]
pIC50 listing for selected compounds.
Recall that pIC50 is obtained by taking minus log10 of the concentration measured in molar.

Query: Enter measured pIC50, system HBsAg, for the compound shown: COCC(C)(C)C1Cc2cc(OCC3CC3)c(OC)cc2-c2cc(=O)c(C(=O)O)cn21 (centres unmarked) [Example 9]
Reply: 8.40

Query: Enter measured pIC50, system HBsAg, for the compound shown: CCc1cc2c(cc1OC)-c1cc(=O)c(C(=O)O)cn1C(C(C)(C)COC)C2 (centres unmarked) [Example 45]
Reply: 7.13

Query: Enter measured pIC50, system HBsAg, for the compound shown: COCCCOc1cc2c(cc1OC)-c1cc(=O)c(C(=O)O)cn1C(C(C)(C)CO)C2 (racemic) [Example 24]
Reply: 8.30

Query: Enter measured pIC50, system HBsAg, for the compound shown: CCOc1cc2c(cc1OCC)-c1cc(=O)c(C(=O)O)cn1C(COC(C)=O)C2 (centres unmarked) [Example 36]
Reply: 6.60

Query: Enter measured pIC50, system HBsAg, for the compound shown: CCOc1cc2c(cc1OCC)-c1cc(=O)c(C(=O)O)cn1C(CN)C2 (centres unmarked) [Example 37]
Reply: 5.81

Query: Enter measured pIC50, system HBsAg, for the compound shown: COCC(C)(C)C1Cc2cc(OCCCN3CCCC3=O)c(OC)cc2-c2cc(=O)c(C(=O)O)cn21 (centres unmarked) [Example 12]
Reply: 6.72

Query: Enter measured pIC50, system HBsAg, for the compound shown: COCC(C)(C)C1Cc2cc(OCCC3CCCN3C)c(OC)cc2-c2cc(=O)c(C(=O)O)cn21 (centres unmarked) [Example 17]
Reply: 6.27

Query: Enter measured pIC50, system HBsAg, for the compound shown: CCOc1cc2c(cc1OCC)-c1cc(=O)c(C(=O)O)cn1C(CNC(=O)c1ccccc1)C2 (centres unmarked) [Example 39]
Reply: 4.70

====

Tested on: HBsAg
Assay: HBsAg assay (CLIA of secreted HBsAg in HepG2.2.15 culture supernatant)
Type: cell-based, HBV
Settings: Hepatitis B virus, HepG2.2.15, read-out: IC50 (HBsAg secretion reduced by 50% compared to the no drug control), HepG2.2.15 cells, culture supernatant, HBsAg CLIA
Criterion: IC50 strictly less than 7 nM. Met: 1.0. Not met: 0.0.

Past entries and their recorded results:
Query: A record lists COCC(C)(C)C1Cc2cc(OCCCCCCO)c(OC)cc2-c2cc(=O)c(C(=O)O)cn21 (stereo not shown) . Is its IC50 below 7 nM?
Reply: 1.0

Query: A record lists COCCCOc1cc2c(cc1Cl)-c1cc(=O)c(C(=O)O)cn1C(C(C)(C)COC)C2 (racemic) . Is its IC50 below 7 nM?
Reply: 1.0

Query: A record lists COCC(C)(C)C1Cc2cc(OCCCSC)c(OC)cc2-c2cc(=O)c(C(=O)O)cn21 (stereo not shown) . Is its IC50 below 7 nM?
Reply: 1.0

Query: A record lists CCOc1cc2c(cc1OCC)-c1cc(=O)c(C(=O)O)cn1C(CN(C)C(C)=O)C2 (stereo not shown) . Is its IC50 below 7 nM?
Reply: 0.0

Query: A record lists COCC(C)(C)C1Cc2cc(OCCCn3cccn3)c(OC)cc2-c2cc(=O)c(C(=O)O)cn21 (stereo not shown) . Is its IC50 below 7 nM?
Reply: 0.0

New cases:
Query: A record lists COCC(C)(C)C1Cc2cc(C#N)c(OC)cc2-c2cc(=O)c(C(=O)O)cn21 (stereo not shown) . Is its IC50 below 7 nM?
Reply: 0.0

Query: A record lists COCCCOc1cc2c(cc1Cl)-c1cc(=O)c(C(=O)O)cn1C(C1CCOCC1)C2 (stereo not shown) . Is its IC50 below 7 nM?
Reply: 0.0

Query: A record lists CCOCCOc1cc2c(cc1OC)-c1cc(=O)c(C(=O)O)cn1C(C(C)(C)COC)C2 (stereo not shown) . Is its IC50 below 7 nM?
Reply: 0.0

Query: A record lists CCOc1cc2c(cc1OCC)-c1cc(=O)c(C(=O)O)cn1C(CN1CCCC1)C2 (stereo not shown) . Is its IC50 below 7 nM?
Reply: 0.0

Query: A record lists CCOc1cc2c(cc1OCC)-c1cc(=O)c(C(=O)O)cn1C(CN(C)C)C2 (stereo not shown) . Is its IC50 below 7 nM?
Reply: 0.0

Query: A record lists COCCOc1cc2c(cc1Cl)-c1cc(=O)c(C(=O)O)cn1C(CS(C)(=O)=O)C2 (stereo not shown) . Is its IC50 below 7 nM?
Reply: 0.0
